Test system: NIH3T3
Test: Cytotoxic Profiling of Annotated Libraries Using Quantitative High-Throughput Screening (AID 1296008); further: nearly all actives have a fitted effect of over 60% in size
Conditions: Five cell lines viability, CellTiter-Glo ATP luminescence, 48-72 h
Inconclusive results are not listed. Active and inactive are the calls of the source. The call rests on the fitted dose curve; in most records, active means well fitted inhibition curve with a large enough effect; inconclusive means small, poorly fitted or top-dose-only effect; inactive means flat fitted curve, though single readings scatter.
Outcomes: active, inactive

> print(dat)
                                   molecule  answer.label
1  Cc1cc(C(C)Nc2ccccc2C(=O)O)c2nc(N3CCOCC3)cc(=O)n2c1 (centres undefined)        active
2  CCn1c(=O)n([C@H]2CCCN(c3nccc(-c4cc5ccccc5o4)n3)C2)c2ccccc21      inactive
3  O=C(N[C@H]1CCN(C(=O)c2cc(C(F)(F)F)cc(C(F)(F)F)c2)[C@H](Cc2ccc(Cl)cc2)C1)c1ccnc2ccccc12      inactive
4  CC(/C=C/C(=O)NO)=C\[C@@H](C)C(=O)c1ccc(N(C)C)cc1        active
5  C=C(C)C(=O)OC1CC2(C)OC(=CC2=O)C(=C)CC2OC(=O)C(=C)C12 (centres undefined)        active
6  COc1cc(F)c(F)c(Nc2ccc(I)cc2F)c1NS(=O)(=O)C1(CC(O)CO)CC1 (centres undefined)        active
7  COc1cccc(OCCCN)c1-c1cc(Nc2cnc(C#N)cn2)n[nH]1        active
8  CCN(Cc1ccccc1)C(=O)Cn1c(=O)n(C)c2cnc(-c3ccccc3)nc21      inactive
9  N#Cc1ccc(COc2ccc(-c3cccc4nc(NC(=O)C5CC5)nn34)cc2)cn1        active

###

Experiment: Drug repurposing screens with cells derived from glioblastoma tumor samples (AID 1345199); further: on the % scale 0 is the no-effect control and ±100 the full control effect; nearly all actives have a fitted effect of over 40% in size
Conditions: GBM patient neurospheres viability, ATP luminescence, 48 h; at 45.9 µM (top of the series); tumour line D
Inconclusive results are not listed. The source made the active and inactive calls. The call rests on the fitted dose curve; in most records, active means well fitted inhibition curve with a large enough effect; inconclusive means small, poorly fitted or top-dose-only effect; inactive means flat fitted curve, though single readings scatter.
Reported activity, negative = cell killing is given for each of the following compounds.
Observed property: activity, negative = cell killing

> print(dat)
                                   compound                  observed.property     recorded.value
1  C=C1CC2C3CCC4=CC(=O)C=C[C@]4(C)[C@@]3(F)[C@@H](O)C[C@]2(C)[C@@]1(O)C(=O)COC(C)=O (stereo partly drawn)  activity, negative = cell killing   11.1% (inactive)
2      CCCCCC(O)/C=C/C=O (stereo not drawn)  activity, negative = cell killing  -8.74% (inactive)
3  O=S(O)CNc1ccc(S(=O)(=O)c2ccc(NCS(=O)O)cc2)cc1  activity, negative = cell killing  0.377% (inactive)

###

# maps each entry to its max response
Test system: CRL-7250
Assay: Cytotoxic Profiling of Annotated Libraries Using Quantitative High-Throughput Screening (AID 1296008); further: nearly all actives have a fitted effect of over 60% in size; on max response: on the % scale 0 is the no-effect control and ±100 the full control effect
Details: Five cell lines viability, CellTiter-Glo ATP luminescence, 48-72 h; active compounds read low
Inconclusive results are not listed.

Molecule	Tested system	max response / %
COC(=O)C1=COC(O[C@@H]2O[C@H](CO[C@@H]3O[C@H](COC(=O)/C=C\c4ccc(O)cc4)[C@@H](O)[C@H](O)[C@H]3O)[C@@H](O)[C@H](O)[C@H]2O)C2C(CO)=CCC12 (stereo not given in full)	CRL-7250	-64.3
CCCCOC(=O)NS(=O)(=O)c1sc(CC(C)C)cc1-c1ccc(Cn2ccnc2)cc1	CRL-7250	-0.539
CCN(CC)C(=O)C(c1ccccc1)N1CCN(c2ccc(NC(=O)c3ccccc3-c3cccnc3)cc2F)CC1 (stereo not given)	CRL-7250	-1.45
O=C(Nc1cc(C(F)(F)F)ccc1N1CCCCC1)c1ccncc1	CRL-7250	-7.1
CCC(C)C(=O)OC12C(OC(C)=O)C(C)C3(O)C(C=C(CO)CC4(O)C(=O)C(C)=CC43)C1C2(C)C (stereo not given)	CRL-7250	-7.79
C=C1C(=O)OC2/C=C(\CO)CC/C=C(\C=O)C(O)C(OC(=O)C(C)CC)C12 (stereo not given)	CRL-7250	0.0349
CCO[C@H]1CN(C2CCC(O)(c3ccc4c(c3)OCO4)CC2)C[C@@H]1NC(=O)CNC(=O)c1cccc(C(F)(F)F)c1 (stereo not given in full)	CRL-7250	1.15
Cc1c(F)ccc(C(=O)Nc2cc([N+](=O)[O-])ccc2N2CCN(C)CC2)c1Cl	CRL-7250	1.68
CCN(c1cc(-c2ccc(CN3CCOCC3)cc2)cc(C(=O)NCc2c(C)cc(C)[nH]c2=O)c1C)C1CCOCC1	CRL-7250	-21.9
CN(C)c1cccc(Oc2cnc(Nc3cccc(O)c3)nc2)c1	CRL-7250	4.02
CN1CCN(c2ccc(OC(F)(F)F)c(Nc3ncc4c(n3)-c3c(c(C(N)=O)nn3CCO)CC4)c2)CC1	CRL-7250	-11.3
O=C(Nc1cccnc1)c1cc(-c2ccnc(F)c2)ccc1OCc1ccccc1	CRL-7250	-1.07
C[C@@H]1CN(CC(=O)N2CC(C)(C)c3ncc(Cc4ccc(F)cc4)cc32)[C@@H](CN2CCOC[C@H]2C)CN1	CRL-7250	-4.83
CN(C)C(CCOc1cccc2ccccc12)c1ccccc1 (stereo not given)	CRL-7250	-16.3
O=C(O)c1cc(N(Cc2ccc(C3CCCCC3)cc2)C(=O)c2ccc(Oc3ccccc3)cc2)ccc1O	CRL-7250	-16.9
NS(=O)(=O)c1ccc(N2CCN(CC[C@@H]3OCCc4ccccc43)CC2)cc1	CRL-7250	-8.79
COc1cc(O)cc(OC2OC(CO)C(O)C(O)C2O)c1 (stereo not given)	CRL-7250	-0.834
Nc1nccc(-c2c(-c3ccc(F)cc3)ncn2C2CCCCC2)n1	CRL-7250	-18.7
O=C(Nc1cccnn1)N1CCN(c2nccc(-c3ccc(F)c(F)c3)n2)CC1	CRL-7250	-5.59
COc1cc(C(C)C)c(Oc2cnc(N)nc2N)cc1I	CRL-7250	-1.85
Cc1nc(Nc2ccc(F)cc2)nc(N2CCc3ccccc3C2C)c1C (stereo not given)	CRL-7250	-9.52
CC(C)(C)c1ccc2c(c1)CC[C@H]2NC(=O)Nc1cccc2[nH]ncc12	CRL-7250	-3.64
N#Cc1cc(C2=Nc3ccc(Br)cc3NC(=O)C2)ccn1	CRL-7250	-3.76
Cc1ccccc1C(C(=O)NC1CCCCC1)N(C(=O)Cn1cnc2ccccc21)c1cccc(F)c1 (stereo not given)	CRL-7250	-31.4
C=C1CCC2C(C)(C)CCCC2(C)C1CC/C(C)=C\CO (stereo not given)	CRL-7250	3.55
